Molecular target: T1, basiliximab fab
T1 construct: The assay used a Fab of basiliximab; Chimeric antibody: human IgG1 constant, mouse variable domains
T1 sequence (VH, as listed by the source limits assumed, chain 1 of 2): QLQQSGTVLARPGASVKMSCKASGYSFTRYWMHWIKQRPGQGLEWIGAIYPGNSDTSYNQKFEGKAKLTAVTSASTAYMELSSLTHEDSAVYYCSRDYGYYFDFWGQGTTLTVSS
T1 sequence (VL, as listed by the source limits assumed, chain 2 of 2): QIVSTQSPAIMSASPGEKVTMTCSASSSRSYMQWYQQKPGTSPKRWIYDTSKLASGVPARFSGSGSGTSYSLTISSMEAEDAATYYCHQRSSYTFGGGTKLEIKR
Assay: BLI; CD25-Fc on anti-hFc biosensor, basiliximab Fab in solution; global 1:1 fit;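 note: biolayer interferometry signals normalized against a reference probe and smoothed with a Savitzky-Golay filter before the global fit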
Readout Kind: Kd
State the result as a value with its unit after it.

Completed entries (count: 2):
CD25 S41E mutant (CD25-Fc) (Fc fusion, not shown: Fc part of CD25-Fc) ELCDDDPPEIPHATFKAMAYKEGTMLNCECKRGFRRIKSGELYMLCTGNSSHSSWDNQCQCTSSATRNTTKQVTPQPEEQKERKTTEMQSPMQPVDQASLPGHCREPPPWENEATERIYHFVVGQMVYYQCVQGYRALHRGPAESVCKMTHGKTRWTQPQLICTGEMETSQFPGEEKPQASPEGRPESETSCLVTTTDFQIQTEMAATMETSIFTTEYQ : 6.08 nM
CD25 L42W mutant (CD25-Fc) (Fc fusion, not shown: Fc part of CD25-Fc) ELCDDDPPEIPHATFKAMAYKEGTMLNCECKRGFRRIKSGSWYMLCTGNSSHSSWDNQCQCTSSATRNTTKQVTPQPEEQKERKTTEMQSPMQPVDQASLPGHCREPPPWENEATERIYHFVVGQMVYYQCVQGYRALHRGPAESVCKMTHGKTRWTQPQLICTGEMETSQFPGEEKPQASPEGRPESETSCLVTTTDFQIQTEMAATMETSIFTTEYQ : 1.04 nM

Please examine the following record next.
// query Kd value for entry CD25 L2F mutant (CD25-Fc) (Fc fusion, not shown: Fc part of CD25-Fc) EFCDDDPPEIPHATFKAMAYKEGTMLNCECKRGFRRIKSGSLYMLCTGNSSHSSWDNQCQCTSSATRNTTKQVTPQPEEQKERKTTEMQSPMQPVDQASLPGHCREPPPWENEATERIYHFVVGQMVYYQCVQGYRALHRGPAESVCKMTHGKTRWTQPQLICTGEMETSQFPGEEKPQASPEGRPESETSCLVTTTDFQIQTEMAATMETSIFTTEYQ
1.07 nM
